The entries below come with measured solubility values attached.
experiment: Assessment of solubility: HT solubility in pION buffer, UV spectrophotometry; conditions: pION system solution buffer, pH 7.4, pH 7.4, aqueous buffer, kinetic from dmso stock, Solubility (pH 7.4), pH 7.4 buffer, 16-19 h incubation, 1.0% DMSO

Cc1ccc(OCc2ccc(CN3CCC(O)CC3)cc2C)c(-c2csc(N3CCC(C(=O)O)CC3)n2)c1	> 55 µg/mL

What value of solubility has been recorded for this entry: Cc1ccc(OCc2ccc(C(=O)N3CCCCC3)cc2C)c(-c2csc(N3CC4CCC(C3)C4C(=O)O)n2)c1 (stereo not shown)
32 µg/mL

// same read-out, input: Cc1cc(CN2CCOCC2)ccc1COc1ccc(Cl)cc1-c1csc(N2CCC(C(=O)O)C(C)C2)n1 (stereo not shown)
25 µg/mL

// same read-out, input: `Cc1cc(CN2CCS(=O)(=O)CC2)ccc1COc1ccc(C#N)cc1-c1csc(N2CCC(C(=O)O)CC2)n1`
> 82 µg/mL

// same read-out, input: `Cc1ccc(OCc2ccc(CN3CCCCC3)cc2C)c(-c2csc(N3CCC(C(=O)O)CC3)n2)c1`
> 63 µg/mL

// same read-out, input: `Cc1cc(CN2CCS(=O)(=O)CC2)ccc1COc1c(C)cccc1-c1csc(N2CCC(C(=O)O)CC2)n1`
> 56 µg/mL

// same read-out, input: `Cc1cccc(-c2csc(N3CCC(C(=O)O)CC3)n2)c1OCc1ccc(C(=O)N2CCCC2)cc1C#N`
> 53 µg/mL
